Values from PubChem BioAssay (NCI)

Overview of reported growth across a group of molecules:
- System: MALME-3M melanoma
- experiment: NCI-60 one-dose screen, 48 h (100 = growth as untreated, 0 = no growth, -100 = all killed)
- applied_conditions: 10 µM unless noted
- Procedure: Cells are grown in 96 well plates and exposed to the test compound for 48 hours. Compounds are tested at a single concentration, which is 10^-5 M for most compounds. The reported endpoint is percent growth (GI% or GIPRCNT), where numbers from 0 - 100% represent growth inhibition, and numbers from -100% - 0 represent cell death. For example, a value of 40 represents 60% growth inhibition. A value of 0 means no net growth occurred over the course of the experiment. […]
This is part of a sample that, as a whole, favours compounds with a hit. Of some 83,000 tested, about 20% had one in any assay.

molecule	growth (%)
C/C(=C\c1ccn(-c2ccc(N)cc2C(F)(F)F)n1)[C@@H]1C[C@@H]2O[C@]2(C)CCC[C@H](C)[C@H](O)[C@@H](C)C(=O)C(C)(C)[C@@H](O)CC(=O)O1	39.9
CN(C)C(=O)Oc1ccccc1-c1ccccc1	110
CNC(=O)Oc1ccc(N(C)C)cc1C(C)C	72.1
COc1ccc(NC([Se])=NC23CC4CC(CC(C4)C2)C3)cc1	-18.5
CCOC(=O)[C@@H](C)C[C@H](Cc1ccccc1)NC(=O)c1nc([C@@H](C[C@H](C(C)C)N(C)C(=O)[C@@H](NC(=O)[C@H]2CCCCN2C)C(C)C)OC(C)=O)sc1CCOCc1ccccc1	-77.4
CN1CC(CNC(=O)OCc2ccccc2)CC2c3cccc4c3c(cn4C)CC21 (configuration not stated)	-16
CC(=O)O[C@H](C[C@H](C(C)C)N(C)C(=O)[C@@H](NC(=O)[C@H]1CCCCN1C)C(C)(C)C)c1nc(C(=O)N[C@@H](Cc2ccccc2)C[C@H](C)C(=O)O)cs1	66.7
N#C[Se]Cc1cc(-c2ccccc2)n(-c2ccc(S(N)(=O)=O)cc2)n1	-47
COC(=O)C1OC(Oc2ccc(N(CCCl)CCCl)cc2)C(OC(C)=O)C(OC(C)=O)C1OC(C)=O (configuration not stated)	96.1
COc1cc(C=Nc2cccc(C(=O)O)c2)ccc1N(CCCl)CCCl	84.4
COC(=O)[C@@H](C)C[C@H](Cc1ccccc1)NC(=O)c1csc([C@@H](C[C@H](C(C)C)N(C)C(=O)[C@H](C)NC(=O)[C@H]2CCCCN2C)OC(C)=O)n1	44.2
C1CCC2(CC1)OOCNCOO2	110
CCCCN(CCCC)P(=O)(Oc1ccccc1)Oc1ccccc1	119
CC[C@H](C)[C@H](NC(=O)[C@H]1CCCCN1C)C(=O)N(C)[C@H](C[C@@H](OC(C)=O)c1nc(C(=O)N[C@@H](Cc2ccccc2)C[C@H](C)C(=O)OC)cs1)C(C)C	65.5
CCc1ccccc1[C@@H]1C[C@]2(C)CCO[C@@H]2OO1	110
CC1=C2[C@@H](CC1)[C@]1(C)O[C@@](C(C)C)(C[C@H]1O)[C@H]2OC(=O)C1CC1c1ccccc1 (some centres not stated)	92.2
CNC(=O)Oc1ccc(C(C)(C)C)cc1OC(=O)NC	104

###

- Test system: BT-549 breast
- experiment: NCI-60 one-dose screen, 48 h (100 = growth as untreated, 0 = no growth, -100 = all killed)
- applied_conditions: 10 µM unless noted
This is part of a sample that, as a whole, favours compounds with a hit. Of some 83,000 tested, about 20% had one in any assay. Calls of active or inactive are those of the source. The calls were made as follows: active = growth percent below 10; inactive = the rest.
Overview of reported growth across a group of compounds:

compound	growth
CC1=C(O)[C@@](C)(CCCCC[C@H](C)CCCCc2ccc(O)cc2)OOC1=O	97.4% (inactive)
NC1CC2CCCCC2CC1(O)c1ccccc1 (centres undefined)	102% (inactive)
C[C@@]12CC=C3c4nc(Nc5cccc(O)c5)sc4CC[C@]3(C)[C@H]1CC[C@]1(C)C(=O)CC[C@@H]21	17.4% (inactive)
O=[N+]([O-])/C=C\c1ccc(Cl)c(Cl)c1	4.99% (active)
Clc1ccc(CO/N=C(\Cn2ccnc2)c2ccc(Cl)cc2Cl)c(Cl)c1	-44% (active)
Cc1cc(C)c(CBr)c(C)c1	105% (inactive)
CCN1C(=O)C(=C/C=C/c2ccccc2)C(=O)N(CC)C1=O	91.9% (inactive)
O=C1NC(=O)C(=Cc2cn(CCCCCCn3c4ccccc4c(=O)c4ccccc43)c3ccccc23)C(=O)N1	94.3% (inactive)
CC(C)=CCC/C(C)=C/C=N\N=C(/N)N[N+](=O)[O-]	92.8% (inactive)
O=C([O][Hg][CH2]C1OCCOC1[CH2][Hg][O]C(=O)c1ccccc1)c1ccccc1 (centres undefined)	75.5% (inactive)
COc1ccc(Nc2ccc([N+](=O)[O-])cc2[N+](=O)[O-])cc1CN(CCCl)CCCl	40.1% (inactive)
CC[CH2][Sn]([Cl])([Cl])[CH2]CC	60.7% (inactive)
CC1[C@H](C)OC(=O)CC(O)CC(O)CC(O)CCC(O)C(O)C[C@]2(O)CC(O)C(C(=O)O)C(CC(OC3O[C@H](C)[C@@H](O)[C@H](N)[C@@H]3O)/C=C/C=C/C=C/C=C/CC/C=C/C=C/[C@H](C)[C@H]1O)O2 (some centres undefined)	105% (inactive)
CC1(C)N=C(N)N=C(N)N1c1ccc(OCCCNC(=O)Nc2ccc(S(=O)(=O)F)cc2)c(Cl)c1	60.9% (inactive)
C=CCn1cc(C=C2C(=O)N(C)C(=O)N(C)C2=O)c2ccccc21	98% (inactive)
O=C1CCC2(O)[C@@H]3Cc4ccc(O)c5c4[C@]2(CCN3Cc2ccoc2)C1O5 (some centres undefined)	110% (inactive)
OCc1ccc2c(c1)OCO2	106% (inactive)
CC(=O)O[C@H]1CC[C@@]2(C)C(=CC[C@H]3[C@@H]4C[C@@H](N5CC5)[C@H](C(C)=O)[C@@]4(C)CC[C@@H]32)C1	100% (inactive)
NC(N)=N/N=C\c1c[nH]c2ccc(Br)cc12	23.7% (inactive)
CCOC(=O)[C@@H](C)C[C@H](Cc1ccccc1)NC(=O)c1csc([C@@H](C[C@H](C(C)C)N(C)C(=O)[C@H](CCC(C)C)NC(=O)[C@H]2CCCCN2C)OC(C)=O)n1	-24.5% (active)
c1cnc2[nH]cc(-c3csc(-c4cn(CCCCN5CCCCC5)c5ccccc45)n3)c2c1	105% (inactive)
CN1CC(=O)N(O)C1(C)c1cccnc1 (centres undefined)	95.7% (inactive)
CC(=O)O[C@@H]1CC[C@]2(C)[C@H]3CC[C@]4(C)C(=O)CC[C@H]4[C@@H]3C[C@@H]3SC(N)=N[C@@]32C1	45.2% (inactive)
CC1CN1CCCCN1CC1C (centres undefined)	103% (inactive)
Cc1cccc(N2CCN(C(C)C#N)CC2)c1 (centres undefined)	92.4% (inactive)
Cc1cc(-c2nc3cc(F)ccc3[se]2)cc(F)c1N	84.4% (inactive)
CC1=C(CCCOC(=O)CN)C2=C(C)C3(CC3)[C@@](C)(O)C(=O)C2=C1	65.8% (inactive)
CCC[CH2][Sn]([CH2]CCC)([CH2]CCC)[O]c1ccc(Cl)cc1Cl	-81.7% (active)
Cc1ccc(S(=O)(=O)C(Cl)(Cl)Cl)cc1	92.1% (inactive)
CC(=O)[O][Hg][c]1c(N)c(C)cc(C)c1F	-14% (active)
C=CC1=C[C@@H]2[C@@H]3O[C@]4(CC[C@H](O4)[C@@H](C)C[C@@H](O)C3=O)C[C@H](O)C3=NCC[C@@]32CC1	-31.9% (active)
COc1ccc(NC([Se])=NC23CC4CC(CC(C4)C2)C3)cc1	11.3% (inactive)
COc1cccc(C=NC(Cc2cnc[nH]2)C(=O)O)c1O (centres undefined)	91.1% (inactive)
Nc1c(F)cc(-c2nc3cc(F)ccc3[se]2)cc1F	78.9% (inactive)
